Target: T1, murine CD22 protein (ACROBiosystems, SI2-M52Ha) (murine, UniProt P35329 22-708)
T1 construct: extracellular domain; also called murine CD22-ECD; murine CD22-ECD-His
T1 sequence (looked up): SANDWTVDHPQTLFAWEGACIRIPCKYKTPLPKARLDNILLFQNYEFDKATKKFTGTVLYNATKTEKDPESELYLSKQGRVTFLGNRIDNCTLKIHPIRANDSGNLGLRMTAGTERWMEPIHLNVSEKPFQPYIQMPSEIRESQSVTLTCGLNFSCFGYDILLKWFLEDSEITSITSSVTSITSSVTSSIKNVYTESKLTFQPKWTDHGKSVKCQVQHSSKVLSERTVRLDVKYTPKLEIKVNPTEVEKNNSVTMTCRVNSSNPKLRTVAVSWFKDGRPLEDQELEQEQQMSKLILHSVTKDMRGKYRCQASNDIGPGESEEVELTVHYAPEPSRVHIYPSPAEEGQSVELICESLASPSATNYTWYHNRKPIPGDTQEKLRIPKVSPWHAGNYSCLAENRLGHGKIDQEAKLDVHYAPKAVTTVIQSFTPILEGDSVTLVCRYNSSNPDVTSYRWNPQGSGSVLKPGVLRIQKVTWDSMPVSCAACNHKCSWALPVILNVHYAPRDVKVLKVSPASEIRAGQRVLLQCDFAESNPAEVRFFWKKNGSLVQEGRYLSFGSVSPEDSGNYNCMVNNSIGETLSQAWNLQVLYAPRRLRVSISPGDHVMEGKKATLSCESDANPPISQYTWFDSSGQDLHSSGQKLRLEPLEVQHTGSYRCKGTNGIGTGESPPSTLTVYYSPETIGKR
Test: ELISA, coated murine CD22, 0.01 nM Ab
Here the recorded OD450 is given for each entry.
// note: answer is a bare numeric in OD450

Some entries whose results are on file:
F2.42.9 human-murine chimeric antibody (antibody, human IgG1, lambda, V domains shown, Chimeric, human IgG1 / lambda; VL tied by name) VH: QVTLKESGPGILQPSQTLSLTCSFSGFSLSTFDRGVGWIRQPSGKGLEWLAHIWWNDKKFYNPVLKSRLTISKDTSKNQVFLTIANVDSADTATYSCARIVWDKYYFDYWGQGIPLTVSS VL: QLVLTQSSSASFSLGASAKLTCTLSSQHSAYTIEWYQQQPLKPPKFVMDLKKDGSHSTGDGIPARFSGSSSGADRYLTISNIQPEDEAIYICGVGDTIKEQYVFGGGTKVTVLG | 0.07
HA22-hIgG1 (antibody, V domains shown) VH: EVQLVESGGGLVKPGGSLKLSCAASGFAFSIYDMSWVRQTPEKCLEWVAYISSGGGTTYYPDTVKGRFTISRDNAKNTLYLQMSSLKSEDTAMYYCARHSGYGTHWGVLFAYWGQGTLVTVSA VL: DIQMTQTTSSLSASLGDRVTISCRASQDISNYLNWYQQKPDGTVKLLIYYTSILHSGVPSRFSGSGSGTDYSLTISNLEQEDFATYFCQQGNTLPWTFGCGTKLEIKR | 0.06

Now let's try a different one.
Short answer for F1.7.6 human-murine chimeric antibody (antibody, human IgG1, kappa, V domains shown, Chimeric, human IgG1 / kappa; VL tied by name) VH: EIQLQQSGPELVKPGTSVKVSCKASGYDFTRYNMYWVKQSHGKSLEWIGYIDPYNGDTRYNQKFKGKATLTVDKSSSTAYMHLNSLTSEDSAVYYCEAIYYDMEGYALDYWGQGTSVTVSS VL: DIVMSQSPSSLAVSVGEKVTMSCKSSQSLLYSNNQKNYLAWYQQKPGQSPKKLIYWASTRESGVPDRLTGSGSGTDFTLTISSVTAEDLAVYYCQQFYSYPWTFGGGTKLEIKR : OD450 was 0.06
